# System: AncSZ;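 also: 11-residue human phosphosite peptides and single-mutation variants displayed on the E. coli surface, counted by deep sequencing, each peptide's frequency after selection divided by its frequency in the unselected input library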;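 also: frequency after pTyr selection over input frequency; kinase dosed for 20-30% of maximal phosphorylation in three min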
# Test Name: phosphorylation enrichment, bacterial display (enrichment ratio); higher = better substrate or ligand; peptides without Tyr show the background
# label = bin(measured phosphorylation enrichment), where bins are bottom range (below 0.7), center range (0.7 to below 1), top range (1 or more)

SLHPGYNFRYA [P2RX7_Y291_Y288H]
bottom range
LDVGEYCVPRG [BEX1_Y43_A40V]
top range
QKMFDYLKEKK [RYR2_Y3780_L3778F]
center range
RALCHYFKLNI [ETV6_Y401_R399C_YF]
top range
SEDSEYYKAFE [CASQ2_Y178]
top range
WRGMPYGGRGD [TGM1_Y312_R307W]
bottom range
AVEDQYYRVDC [FHL1_Y207_C209R]
top range
LVRPPYSFSAL [FOXI1_Y126_YF]
bottom range
YVPSFYHAFSG [ACTN4_Y265_S262P]
center range
TNLVPYTRIHF [TUBA1A_Y262_P263T]
center range
RRIHSYRGFLW [VHL_Y112_H115Y_YF]
bottom range
DFTSRYLSASD [PKHD1_Y828_N830S]
center range
CYVYYYSYLLK [PTEN_Y178_R173C]
top range
ANKNVYEVEPT [MEGF10_Y1075_R1072K]
center range
DLQDENDFKCK [STAT1_Y170_Y170N]
top range
QISRDYGVLLE [PRDX3_Y172]
center range
GQAPGYSYTAA [CYCS_Y47]
bottom range
RRNTPYSQTMK [TET2_Y819_S817T]
bottom range
IENKLYGMSDS [RET_Y1062_P1067S]
center range
RGGWVYVLHPT [TRMT61A_Y67]
top range
PGVDIYVSPNM [PADI3_Y51_I52V]
top range
VATRWYRSLEL [CDKL5_Y177_P180L]
center range
EHTTLYSNNST [KANSL1_Y223]
bottom range

---

Attribute: SH2 binding enrichment
# Subject Of Test: SHP2-C SH2
# Test Name: SH2 binding enrichment of the phosphorylated peptide, bacterial display (enrichment ratio); higher = better substrate or ligand; peptides without Tyr show the background
Value Kind: SH2 binding enrichment

GLNKDYRMVVN [HINT1_Y94_G93D]
0.635
FSLPAYMDRRD [COX4I1_Y38]
0.72
LPKVSYVKAID [GLRA1_Y307]
0.768
TNYRLYLRSLE [MTM1_Y71]
1.09
GKVFIYHGSSL [ITGA7_Y458]
0.707
VPVPGYTKVPE [SPRR3_Y146_L149V]
0.581
SSQTIYQRVEG [TFR2_Y23_V22I]
0.898
EEEFEYMNRRR [ERBB3_Y1199_D1194E_YF]
0.671
FGFPGYQSKHF [TIMP3_Y177_YF]
0.75
ATYRGYDSDNP [MMUT_Y146_H143Y]
0.562
IKSSIYDNRNE [ARAP2_Y380_K384N]
0.593
EAIMTYVSSFF [ACTN4_Y260_K255E_YF]
0.642
GTYEDYVEGLR [MYL6_Y89]
0.645
REHTVYGEPRK [MAGEA4_Y240]
0.54
EFISEYCGEII [EZH2_Y641]
0.809
TRSYDYMEGED [FGF7_Y58_G62E]
1.05
KNNDGNIDYAE [MCFD2_Y135_Y135N]
0.792
PPQFSYGLQTQ [SRA1_Y35]
0.544
DFDHSYFFIAT [ESD_Y262_G257D_YF]
0.568
EFGEVYKGTLK [EPHA2_Y628_M631T]
0.393
RLLRGYRQDAF [HLA-A_Y137_F133L_YF]
0.965
GDPVQYNRTTD [MLPH_Y454]
0.738
RHAASYSSDSE [REPS1_Y116]
0.735
QGIYGYHHHMQ [UFSP2_Y287_Y290H]
1.07
EWQQIYTFDSG [JUP_Y20_T19I_YF]
0.92
LGPSDYFGETA [PRKAR1A_Y323_I327T]
0.499
GLRCGYGVLGG [KRTAP20-2_Y15_Y13C]
0.572
RLQEGYDHSYY [ESD_Y258]
1.05
NGSKGYAYVHF [PABPC5_Y147]
19.3
SSVKLYRVFCD [FGB_Y266_P265L_YF]
0.633
KLLLKYSFHDA [RNF213_Y4141_V4146A]
1.02
CHRQLYHKCTH [F12_Y58_Y53C]
1.3
QISQDYGVLLE [PRDX3_Y172_R170Q]
0.482
SLDLSYYTTSS [EMD_Y181_P183T]
0.851
SRGLAYPARPA [LEMD2_Y122]
0.606
YFRDGYMPRQY [GSS_Y270]
0.848
KKHIPYSEHKS [CSNK1G2_Y206_R207S]
1.41
DLRTGYSVPFG [TGM1_Y370_Y365D_YF]
0.928
PEAALYGRFTF [FYN_Y440_I445F]
0.563
LLKANYELLNA [POLR3A_Y714_K713N]
0.973
HSGIYYKPESL [L2HGDH_Y103]
0.563
NNDLCYWVPEL [IARS1_Y434]
0.791
RRAKGYPIFLF [ITGB2_Y125_D128Y_YF]
0.679
ALEKTYNTYRS [B4GALNT2_Y538]
0.612
VQVAFYTMMMN [SPATA17_Y84_YF]
0.814
VHSGTYQVMVR [MYBPC3_Y1043_T1046M]
0.628
RVFIKYLPEWT [PSEN1_Y240_L235R]
1.19
SLAARYYNWVS [FLT4_Y1230]
2.19
ERDTVYSSSGV [NELL2_Y350_N347D]
0.492
CEDGNYSPEIS [PTDSS1_Y424_T423N]
0.761
RSGIFYKPESL [L2HGDH_Y103_H98R_YF]
0.894
TKFRNYLIPNG [CYP2C8_Y379_K383N]
0.724
LLKAGYQGVLR [TTPA_Y100_H101Q]
1.3
IFETDYFQKGG [INSR_Y1189_R1191Q_YF]
0.438
PANTVYSTVEI [SLAMF7_Y304]
5.85
SYTDPYAQPSL [KMT2D_Y2378_P2382S]
0.775
RTIPDYTSFNT [EPHB2_Y912]
0.926
